Hey, just so you know, these numbers are from PubChem BioAssay AID2060497.

System: 317291-083-R-J1-PDC complex spheroids, viability
assay_notes: Anticancer human tumor 317291-083-R-J1-PDC patient-derived soft tissue sarcoma cell line growth inhibition [GQUAD]
condition_notes: second compound 10 µM; first compound 1 µM; stronger effect = lower value
Note to self: use TRUE only for viability, T/C readings below 10%; a reading exactly at 10% still gets FALSE.

Solved entries:
molecule: COc1ccc([C@@H](O)c2cc(-c3ncnc4cc(N5CCOCC5)ccc34)c(F)cc2Cl)nn1 + CN(C)c1ccc(Nc2c3ccc(NC(=O)CCN4CCCC4)cc3nc3cc(NC(=O)CCN4CCCC4)ccc23)cc1
answer_label: TRUE
//
molecule: CC1COCCN1c1cc(C2(S(C)(=N)=O)CC2)nc(-c2ccnc3[nH]ccc23)n1 (stereo unspecified) + Cc1[nH]c2ccc(F)cc2c1-c1nc2c3cccnc3c3ncccc3c2[nH]1
answer_label: FALSE
//
molecule: CC(C)(O)C1CCC(Nc2ccc3ncc(-c4cccc(C(F)(F)F)c4)n3n2)CC1 (stereo unspecified) + CN(C)c1ccc(Nc2c3ccc(NC(=O)CCN4CCCC4)cc3nc3cc(NC(=O)CCN4CCCC4)ccc23)cc1
answer_label: TRUE
//
molecule: O=C(NO)c1cnc(N2CCN(S(=O)(=O)c3ccc4ccccc4c3)CC2)nc1 + CN(C)c1ccc(Nc2c3ccc(NC(=O)CCN4CCCC4)cc3nc3cc(NC(=O)CCN4CCCC4)ccc23)cc1
answer_label: TRUE
//
molecule: C=CCn1c(=O)c2cnc(Nc3ccc(N4CCN(C)CC4)cc3)nc2n1-c1cccc(C(C)(C)O)n1 + CN(C)c1ccc(Nc2c3ccc(NC(=O)CCN4CCCC4)cc3nc3cc(NC(=O)CCN4CCCC4)ccc23)cc1
answer_label: TRUE
//
molecule: Nc1ccn(C2OC(CO)C(O)C2(F)F)c(=O)n1 (stereo unspecified) + Cc1cnc(CNC(=O)c2c(=O)c3ccc(N4CCCN(C)CC4)nc3n3c2sc2ccccc23)cn1
answer_label: TRUE
//
molecule: Cc1cccc(N(C)C(=O)C2C(O)CCN2c2nc(C)cc(C(F)(F)F)c2C#N)c1 (stereo unspecified) + Cc1cnc(CNC(=O)c2c(=O)c3ccc(N4CCCN(C)CC4)nc3n3c2sc2ccccc23)cn1
answer_label: FALSE
//
molecule: CC(C)(O)C1CCC(Nc2ccc3ncc(-c4cccc(C(F)(F)F)c4)n3n2)CC1 (stereo unspecified) + Cc1[nH]c2ccc(F)cc2c1-c1nc2c3cccnc3c3ncccc3c2[nH]1
answer_label: FALSE
//
molecule: CC(C)(O)C1CCC(Nc2ccc3ncc(-c4cccc(C(F)(F)F)c4)n3n2)CC1 (stereo unspecified) + Cc1cnc(CNC(=O)c2c(=O)c3ccc(N4CCCN(C)CC4)nc3n3c2sc2ccccc23)cn1
answer_label: TRUE
//
molecule: O=c1[nH]cc(F)c(=O)[nH]1 + Cc1cnc(CNC(=O)c2c(=O)c3ccc(N4CCCN(C)CC4)nc3n3c2sc2ccccc23)cn1
answer_label: FALSE

Query: Does C#Cc1c(F)ccc2cc(O)cc(-c3ncc4c(N5CC6CCC(C5)N6)nc(OCC56CCCN5CC(F)C6)nc4c3F)c12 (stereo unspecified) + CN(C)c1ccc(Nc2c3ccc(NC(=O)CCN4CCCC4)cc3nc3cc(NC(=O)CCN4CCCC4)ccc23)cc1 have viability, T/C strictly under 10%?
Response: TRUE

* * *

Tested on: 317291-083-R-J1-PDC complex spheroids, viability
assay_notes: Anticancer human tumor 317291-083-R-J1-PDC cell line growth inhibition [GQUAD];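 further: spheroids exposed to compounds for one week before readout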
condition_notes: curve of first compound; second compound 10 µM
Please respond with reported IC50 for every item in the list.

molecule: Cn1ncnc1[C@H]1c2n[nH]c(=O)c3cc(F)cc(c23)N[C@@H]1c1ccc(F)cc1 + Cc1cnc(CNC(=O)c2c(=O)c3ccc(N4CCCN(C)CC4)nc3n3c2sc2ccccc23)cn1
IC50: < 0.999 nM
--
molecule: C=CCn1c(=O)c2cnc(Nc3ccc(N4CCN(C)CC4)cc3)nc2n1-c1cccc(C(C)(C)O)n1 + CN(C)c1ccc(Nc2c3ccc(NC(=O)CCN4CCCC4)cc3nc3cc(NC(=O)CCN4CCCC4)ccc23)cc1
IC50: < 31.6 nM
--
molecule: Cc1[nH]c2ccccc2c1CCNCc1ccc(/C=C/C(=O)NO)cc1 + CN(C)c1ccc(Nc2c3ccc(NC(=O)CCN4CCCC4)cc3nc3cc(NC(=O)CCN4CCCC4)ccc23)cc1
IC50: < 0.999 nM
--
molecule: CCCS(=O)(=O)Nc1ccc(F)c(C(=O)c2c[nH]c3ncc(-c4ccc(Cl)cc4)cc23)c1F + Cc1[nH]c2ccc(F)cc2c1-c1nc2c3cccnc3c3ncccc3c2[nH]1
IC50: < 31.6 nM
--
molecule: Cc1cccc(N(C)C(=O)C2C(O)CCN2c2nc(C)cc(C(F)(F)F)c2C#N)c1 (stereo unspecified) + Cc1[nH]c2ccc(F)cc2c1-c1nc2c3cccnc3c3ncccc3c2[nH]1
IC50: > 10000 nM

Lab note: each molecule below needs its IC50 filled in.
1. CC[C@@]1(O)C(=O)OCc2c1cc1n(c2=O)Cc2cc3c(CN(C)C)c(O)ccc3nc2-1 + CN(C)c1ccc(Nc2c3ccc(NC(=O)CCN4CCCC4)cc3nc3cc(NC(=O)CCN4CCCC4)ccc23)cc1
2. CCCS(=O)(=O)Nc1ccc(F)c(C(=O)c2c[nH]c3ncc(-c4ccc(Cl)cc4)cc23)c1F + CN(C)c1ccc(Nc2c3ccc(NC(=O)CCN4CCCC4)cc3nc3cc(NC(=O)CCN4CCCC4)ccc23)cc1

Response:
< 0.999 nM
< 31.6 nM

Lab note: each molecule below needs its IC50 filled in.
1. COc1ccc([C@@H](O)c2cc(-c3ncnc4cc(N5CCOCC5)ccc34)c(F)cc2Cl)nn1 + Cc1cnc(CNC(=O)c2c(=O)c3ccc(N4CCCN(C)CC4)nc3n3c2sc2ccccc23)cn1
2. C=CCn1c(=O)c2cnc(Nc3ccc(N4CCN(C)CC4)cc3)nc2n1-c1cccc(C(C)(C)O)n1 + Cc1[nH]c2ccc(F)cc2c1-c1nc2c3cccnc3c3ncccc3c2[nH]1
3. C=CC(=O)N1CCN(c2nc(=O)n(-c3c(C)ccnc3C(C)C)c3nc(-c4c(O)cccc4F)c(F)cc23)C(C)C1 (stereo unspecified) + Cc1cnc(CNC(=O)c2c(=O)c3ccc(N4CCCN(C)CC4)nc3n3c2sc2ccccc23)cn1
4. O=C(NO)c1cnc(N2CCN(S(=O)(=O)c3ccc4ccccc4c3)CC2)nc1 + Cc1cnc(CNC(=O)c2c(=O)c3ccc(N4CCCN(C)CC4)nc3n3c2sc2ccccc23)cn1
5. COc1cccc2c1C(=O)c1c(O)c3c(c(O)c1C2=O)CC(O)(C(=O)CO)CC3OC1CC(N)C(O)C(C)O1 (stereo unspecified) + Cc1cnc(CNC(=O)c2c(=O)c3ccc(N4CCCN(C)CC4)nc3n3c2sc2ccccc23)cn1

Response:
["< 31.6 nM", "< 31.6 nM", "< 31.6 nM", "< 31.6 nM", "< 31.6 nM"]

Lab note: each molecule below needs its IC50 filled in.
1. CC(C)(O)C1CCC(Nc2ccc3ncc(-c4cccc(C(F)(F)F)c4)n3n2)CC1 (stereo unspecified) + Cc1cnc(CNC(=O)c2c(=O)c3ccc(N4CCCN(C)CC4)nc3n3c2sc2ccccc23)cn1
2. CC1COCCN1c1cc(C2(O)CC3CCC(C2)O3)c2cnn(-c3ccn[nH]3)c2n1 (stereo unspecified) + Cc1cnc(CNC(=O)c2c(=O)c3ccc(N4CCCN(C)CC4)nc3n3c2sc2ccccc23)cn1
3. CCCS(=O)(=O)Nc1ccc(F)c(C(=O)c2c[nH]c3ncc(-c4ccc(Cl)cc4)cc23)c1F + Cc1cnc(CNC(=O)c2c(=O)c3ccc(N4CCCN(C)CC4)nc3n3c2sc2ccccc23)cn1
4. Nc1ccn(C2OC(CO)C(O)C2(F)F)c(=O)n1 (stereo unspecified) + Cc1[nH]c2ccc(F)cc2c1-c1nc2c3cccnc3c3ncccc3c2[nH]1
5. Nc1ccn(C2OC(CO)C(O)C2(F)F)c(=O)n1 (stereo unspecified) + Cc1cnc(CNC(=O)c2c(=O)c3ccc(N4CCCN(C)CC4)nc3n3c2sc2ccccc23)cn1

Response:
["< 31.6 nM", "< 31.6 nM", "< 31.6 nM", "< 31.6 nM", "< 31.6 nM"]

Lab note: each molecule below needs its IC50 filled in.
1. COc1ccc([C@@H](O)c2cc(-c3ncnc4cc(N5CCOCC5)ccc34)c(F)cc2Cl)nn1 + Cc1[nH]c2ccc(F)cc2c1-c1nc2c3cccnc3c3ncccc3c2[nH]1
2. CC1COCCN1c1cc(-c2ccnn2C)c2ccnc(-c3ccn[nH]3)c2n1 (stereo unspecified) + CN(C)c1ccc(Nc2c3ccc(NC(=O)CCN4CCCC4)cc3nc3cc(NC(=O)CCN4CCCC4)ccc23)cc1
3. C=CCn1c(=O)c2cnc(Nc3ccc(N4CCN(C)CC4)cc3)nc2n1-c1cccc(C(C)(C)O)n1 + Cc1cnc(CNC(=O)c2c(=O)c3ccc(N4CCCN(C)CC4)nc3n3c2sc2ccccc23)cn1
4. Cn1ncnc1[C@H]1c2n[nH]c(=O)c3cc(F)cc(c23)N[C@@H]1c1ccc(F)cc1 + CN(C)c1ccc(Nc2c3ccc(NC(=O)CCN4CCCC4)cc3nc3cc(NC(=O)CCN4CCCC4)ccc23)cc1

Response:
1. 2250 nM
2. < 31.6 nM
3. < 31.6 nM
4. < 0.999 nM
